Each recorded value in this set is attributed to PubChem BioAssay (NCI).

tested on: HCT-15 colon; assay: NCI tumour cell line growth inhibition, 48 h; in the data active means GI50 below about 0.43 µM; inactive means the rest
Return exactly one item of active, inactive

# input Recorded call for `COc1cccc2c1nc(C(F)F)n2-c1nc(-c2ccc(NS(=O)(=O)CCN(C)C)cc2)nc(N2CCOCC2)n1` ?
# output active

# input Please share the test call associated with `CNC(=O)Oc1cc(C(C)C)ccc1Sc1ccc(C(C)C)cc1OC(=O)NC` .
# output inactive

# input What is the recorded call for this molecule in the test? CC(C)=CC[C@@H]1CC2(CC=C(C)C)C(=O)C(OC3(C(=O)c4ccccc4)C(=O)C4(CC=C(C)C)C[C@@H](CC=C(C)C)C(C)(C)C(CC=C(C)C)(C4=O)C3=O)(C(=O)c3ccccc3)C(=O)C(CC=C(C)C)(C2=O)C1(C)C (stereo partly drawn)
# output inactive

# input What classification did `COC(=O)N[C@H]1CCc2cc(OC)c(OC)c(OC)c2-c2ccc(SC)c(=O)cc21` end up with in this test?
# output active

# input GET /call?item= `CN(C)CCC(N)(P(=O)([O-])[O-])P(=O)([O-])[O-].N.N.[Pt+2]` returns the recorded outcome of this test.
# output inactive

# input Tell me the recorded outcome of this test for `O=C(O)c1ccc(N(/C=C/C(=O)C(F)(F)F)Cc2ccc(Cl)cc2)cc1` .
# output inactive

# input Write down the call the test reported for this molecule. Item: `COc1cc2cc(NCc3cccc(Cl)c3)nc(C)c2cc1OC`
# output inactive

# input For `O=C1NC(=O)C(c2c[nH]c3ccccc23)=C1c1c[nH]c2ccccc12` , what call appears in the results of this test?
# output inactive
